Assay target: human B1R receptor (Homo sapiens, UniProt P46663)
Construct: host or cells: CHO K1 cells (Chinese hamster ovary), stably transfected
Sequence (P46663 1-353): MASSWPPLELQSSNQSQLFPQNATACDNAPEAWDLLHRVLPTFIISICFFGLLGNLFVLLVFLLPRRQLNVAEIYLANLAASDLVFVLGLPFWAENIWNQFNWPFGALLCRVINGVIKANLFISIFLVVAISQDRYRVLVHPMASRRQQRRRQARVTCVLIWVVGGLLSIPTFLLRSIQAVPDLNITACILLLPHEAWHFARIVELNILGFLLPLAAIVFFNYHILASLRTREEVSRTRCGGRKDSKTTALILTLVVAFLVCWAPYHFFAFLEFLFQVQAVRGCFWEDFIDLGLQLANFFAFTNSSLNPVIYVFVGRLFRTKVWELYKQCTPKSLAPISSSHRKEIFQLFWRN
Test description: Functional study on the bradykinin receptor 1 (B1R), FLIPR Ca2+ assay, hB1R cells
Assay type: cell-based
Condition set: CHO-K1, test substance 10 μM, agonist Lys-Des-Arg9-bradykinin 0.5 nM, % inhibition compared with the maximum achievable inhibition, read-out: B1R Antagonism, human [10 μM] % Inhibition
Where a name gives a salt, the structure may show the parent alone.
Each entry below carries its recorded inhibition at 10 µM.
Note: state the figure and append the unit.

Please review the entries below; each comes with its answer.
COc1cc(C)c(S(=O)(=O)N2CCCCC2COCC(=O)N(C)[C@H]2CCN(Cc3ccccc3)C2)c(C)c1 (stereo partly shown)
105%
CN1CCC(N2CCN(C(=O)COCC3CCCCN3S(=O)(=O)c3ccc4ccccc4c3)CC2)CC1 (stereo not shown)
91.9%
CCN(CCCNC(=O)COCC1CCCCN1S(=O)(=O)c1c(C)cc(OC)cc1C)c1ccccc1 (stereo not shown)
35.1%
COc1cc(C)c(S(=O)(=O)N2CCCCC2COCC(=O)Nc2ccc(N3CCOCC3)cc2)c(C)c1 (stereo not shown)
22.1%
CN1CCC(N2CCN(C(=O)COCC3CCCCN3S(=O)(=O)c3cccc4ccccc34)CC2)CC1 (stereo not shown)
102%

COc1cc(C)c(S(=O)(=O)N2CCCC2COCC(=O)NCC2CCCN(Cc3ccccc3)C2)c(C)c1 (stereo not shown) on human B1R receptor (Homo sapiens, UniProt P46663) gives inhibition at 10 µM = 106%

// inhibition at 10 µM (human B1R receptor (Homo sapiens, UniProt P46663)) for CN1CCC(N2CCN(C(=O)COCC3CCCCN3S(=O)(=O)c3cccc(Cl)c3Cl)CC2)CC1 (stereo not shown) [Example 173, dihydrochloride] = 101%

---

Assay target: human B1R receptor (Homo sapiens)
Construct: host or cells: CHO K1 cells (Chinese hamster ovary), stably transfected
Test description: Functional study on the bradykinin receptor 1 (B1R), FLIPR Ca2+ assay, hB1R cells
Type: cell-based
Condition set: CHO-K1, test substance 10 μM, agonist Lys-Des-Arg9-bradykinin 0.5 nM, % inhibition compared with the maximum achievable inhibition, read-out: B1R Antagonism, human [10 μM] % Inhibition
Counter-ions that a name gives are not always drawn.
Property: inhibition at 10 µM (%)
Please give a number only; it is taken to be in %.

// below: answered compounds
COc1cc(C)c(S(=O)(=O)N2CCCCC2COCC(=O)NCCN2CCN(Cc3ccccc3)CC2)c(C)c1 (stereo not shown)
90.8
COc1cc(C)c(S(=O)(=O)N2CCCCC2COCC(=O)N(C)CCN(C)C)c(C)c1 (stereo not shown)
67.9
O=C(COCC1CCCCN1S(=O)(=O)c1c(Cl)cccc1Cl)N1CCN(c2ccncc2)CC1 (stereo not shown)
103
COc1cc(C)c(S(=O)(=O)N2CCCC2COCC(=O)N2CCN(c3cccc(Cl)c3)CC2)c(C)c1 (stereo not shown)
95.5
Cc1ccccc1Oc1cccc(S(=O)(=O)N2CCCCC2COCC(=O)N2CCN(C3CCN(C)CC3)CC2)c1 (stereo not shown)
82.1
Cc1cccc(Cl)c1S(=O)(=O)N1CCC[C@@H]1COCC(=O)N1CCN(C2CCN(C)CC2)CC1 [Example 152, dihydrochloride]
100

Let us examine a further case.
With human B1R receptor (Homo sapiens) as the test system, O=C(COCC1CCCCN1S(=O)(=O)c1ccc(Cl)c(Cl)c1)N1CCN(CC2CCCCC2)CC1 (stereo not shown) showed inhibition at 10 µM of 54.1
